Listed below: EC50 values for each entry.
test system: NCI-H2052; experiment: Mesothelioma cell line proliferation assay (ATPlite), NCI-H2052; assay type: cell-based; conditions: Homo sapiens, NCI-H2052, 144 h, NCI-H2052 cells, 6 days, ATPlite cell viability

Would you please look over these solved cases?
C=CC(=O)NCc1cnc(-c2ccc(F)cc2)cc1-c1ccn(C)n1 ... < 1000 nM
C=CC(=O)NCc1cnc(-c2ccc(F)cc2)cc1-c1ccn(C(F)F)n1 ... < 1000 nM
C=CC(=O)NCc1cnc(-c2ccc(F)cc2)cc1-c1ccn(C2CC2)n1 ... < 1000 nM
C=CC(=O)NCc1cnc(-c2ccc(F)cc2)nc1-c1ccn(C)n1 ... < 1000 nM
C=CC(=O)NCc1ccc(-c2ccc(F)cc2)cc1-c1nnn(C)n1 ... < 1000 nM

Fill blank: measured EC50 of the molecule "C=CC(=O)NCc1ccc(-c2ccc(F)cc2)cc1-c1cn(C(F)F)nn1" is ____.
1000 to 10000 nM

And "C=CC(=O)NCc1ccc(-c2ccc(F)cc2)cc1-c1ccn(CC2CC2)n1" ?
< 1000 nM

And "CNS(=O)(=O)CCNc1cc(-c2ccccc2)cc(-c2ccn(Cc3cccnc3)n2)c1" ?
> 10000 nM

And "C=CC(=O)NCc1ccc(-c2ccc(C(F)(F)F)cc2)cc1-c1ccn(C)n1" ?
< 1000 nM

----------
system: NCI-H2052; test: Mesothelioma cell line proliferation assay (ATPlite), NCI-H2052; assay type: cell-based; conditions: Homo sapiens, NCI-H2052, 144 h, NCI-H2052 cells, 6 days, ATPlite cell viability
pEC50: −log10 of the molar value.
Listed below: pEC50 values for each entry.

C=CC(=O)NCc1ccc(-c2cccc(C(F)(F)F)c2)cc1-c1ccn(C)n1 [compound 141] ... > 6.00

Fill blank: measured pEC50 of the molecule C=CC(=O)NCc1ccc(-c2ccc(C(F)(F)F)cc2)cc1-c1ccn(C(F)F)n1 [compound 172] is ____.
> 6.00

And C=CC(=O)NCc1cc(-c2ccc(F)cc2)cc(-c2cnn(C(F)F)c2)n1 [compound 227] ?
< 5.00

And CNS(=O)(=O)CCNc1cnc(-c2ccc(F)cc2)cc1-c1ccn(C(F)F)n1 [compound 131] ?
< 5.00

And C=CC(=O)NCc1ncc(-c2ccc(F)cc2)cc1-c1ccn(C)n1 [compound 201] ?
> 6.00

And C=CC(=O)NCc1cnc(C2CCC(F)(F)CC2)cc1-c1ccn(C(F)F)n1 [Cpd. No. 223] ?
5.00 to 6.00

And C=CC(=O)NCc1ccc([C@H]2CC[C@@H](C(F)(F)F)CC2)cc1-c1ccn(C)n1 [compound 179] ?
> 6.00

Measured values drawn from patent US12552772B2 for this set.
